Tested on: rodent lifetime carcinogenesis bioassay, tumor incidence TD50
Assay: carcinogenic potency in animals, long-term in vivo studies, CPDB compilation (AID 1745844)
Conditions: rat; strain Fischer 344; females; in feed; site: uterus; lesion: endometrial stromal polyp + endometrial stromal sarcoma; dosed 104 weeks; study length 105 weeks
readout-name: TD50 (mg/kg/day)
Give bare numbers, in mg/kg/day.

Problem: // query TD50 value for entry OCC(CO)(CBr)CBr
Solution: 859

----------
Tested on: rodent lifetime carcinogenesis bioassay, tumor incidence TD50
Assay: carcinogenic potency in animals, long-term in vivo studies, CPDB compilation (AID 1745844)
Conditions: rat; strain Fischer 344; males; inhaled; site: all sites; lesion: mononuclear-cell leukemia; dosed 103 weeks; study length 104 weeks
readout-name: TD50 (mg/kg/day)
One number for each entry, in mg/kg/day.

Problem: Sample FC(F)=C(F)F — what was its TD50?
Solution: 59.7

Reference source for all entries: PubChem BioAssay AID1745844
